Origin of values: ChEMBL document CHEMBL5236615

Test system: K562
assay comment: cells
condition details: Homo sapiens, K562, 72 h
Description: Antiproliferative activity against human K562 cells measured after 72 hrs by MTT assay
pIC50: −log10 of the molar value.
Known pIC50 of a selection of molecules
property: pIC50

1) COc1cc([C@@H]2c3cc4c(cc3C[C@H]3COC(=O)N32)OCCO4)cc(OC)c1OC = 7.77
2) COc1cc([C@@H]2c3cc4c(cc3C[C@H]3C(=O)NCC(=O)N23)OCCO4)cc(OC)c1OC = 6.11

* * *

Tested on: MCF7
assay comment: cells
condition details: Homo sapiens, MCF7, 72 h
Description: Antiproliferative activity against human MCF7 cells measured after 72 hrs by MTT assay
# IC50 annotations
property: IC50 (nM)

1) CC(=O)O[C@H]1C(=O)[C@@]2(C)[C@H]([C@H](OC(=O)c3ccccc3)[C@]3(O)C[C@H](OC(=O)[C@H](O)[C@@H](NC(=O)c4ccccc4)c4ccccc4)C(C)=C1C3(C)C)[C@]1(OC(C)=O)CO[C@@H]1C[C@@H]2O [PACLITAXEL] = 19.7
2) COc1cc([C@@H]2c3cc4c(cc3C[C@H]3C(=O)NC(=O)N23)OCCO4)cc([N+](=O)[O-])c1OC = 40.7
3) COc1cc([C@@H]2c3cc4c(cc3C[C@H]3COC(=O)N32)OCCO4)cc(OC)c1OC = 17.3
4) COc1cc([C@@H]2c3cc4c(cc3C[C@H]3COC(=O)N32)OCO4)cc(OC)c1OC = 33.6
5) COc1cc([C@@H]2c3cc4c(cc3C[C@H]3COC(=O)N32)OCO4)cc2c1OCO2 = 149
6) O=C1NC(=O)N2[C@H](c3cc(Cl)nc(Cl)c3)c3cc4c(cc3C[C@@H]12)OCCO4 = 400

* * *

assay comment: Metabolic stability in human liver microsomes assessed as intrinsic clearance at 1 uM by LC/MS analysis
Format: ADME, Microsome
condition details: read-out: CLH
property: CLint scaled at 1 µM (mL/min/kg)

1. O=C1NC(=O)N2[C@H](c3cc(Cl)c(F)c(Cl)c3)c3cc4c(cc3C[C@@H]12)OCCO4 = 121
2. COc1cc([C@@H]2c3cc4c(cc3C[C@H]3C(=O)NC(=O)N23)OCCO4)cc(OC)c1OC = 81.2
3. COc1cc([C@@H]2c3cc4c(cc3C[C@H]3COC(=O)N32)OCCO4)cc(OC)c1OC = 794
4. COc1c(Br)cc([C@@H]2c3cc4c(cc3C[C@H]3C(=O)NC(=O)N23)OCCO4)cc1Br = 167
5. COc1c(Cl)cc([C@@H]2c3cc4c(cc3C[C@H]3C(=O)NC(=O)N23)OCCO4)cc1Cl = 66.7
6. COc1c(Br)cc([C@@H]2c3cc4c(cc3C[C@H]3COC(=O)N32)OCCO4)cc1Br = 1370
7. COc1c(Cl)cc([C@@H]2c3cc4c(cc3C[C@H]3COC(=O)N32)OCCO4)cc1Cl = 589
8. COc1cc([C@@H]2c3cc4c(cc3C[C@H]3COC(=O)[C@@H]32)OCO4)cc(OC)c1OC = 1440

* * *

Test system: MCF7
assay comment: cells
condition details: Homo sapiens, MCF7, 72 h
Reported IC50 maps to class as: label 0 = under 20 nM, label 1 = from 20 nM up to 100 nM, label 2 = 100 nM and over

1) COc1cc([C@@H]2c3cc4c(cc3C[C@H]3C(=O)NCC(=O)N23)OCCO4)cc(OC)c1OC = label 2
2) O=C1OC[C@@H]2Cc3cc4c(cc3[C@@H](c3ccc(OC(F)F)c(OC(F)F)c3)N12)OCCO4 = label 2
3) CCCN1CC(=O)N2[C@H](c3cc(OC)c(OC)c(OC)c3)c3cc4c(cc3C[C@H]2C1=O)OCCO4 = label 2
4) COc1ccc([C@@H]2c3cc4c(cc3C[C@H]3COC(=O)N32)OCO4)cc1OC = label 2
5) COc1cc([C@@H]2c3cc4c(cc3C[C@H]3COC(=O)N32)OCO4)cc(OC)c1O = label 2
6) CCN1C(=O)[C@@H]2Cc3cc4c(cc3[C@@H](c3cc(OC)c(OC)c(OC)c3)N2C1=O)OCCO4 = label 2
7) COc1cc([C@@H]2c3cc4c(cc3C[C@H]3C(=O)NC(=O)N23)OCCO4)cc2c1OCO2 = label 1
8) COc1cc([C@@H]2c3cc4c(cc3C[C@H]3COC(=O)N32)OCO4)ccn1 = label 2
9) COc1c(Br)cc([C@@H]2c3cc4c(cc3C[C@H]3C(=O)NC(=O)N23)OCCO4)cc1Br = label 0
10) COc1c(Br)cc([C@H]2c3cc4c(cc3C[C@H]3C(=O)NC(=O)N23)OCCO4)cc1Br = label 2
11) COc1c(Cl)cc([C@@H]2c3cc4c(cc3C[C@H]3C(=O)NC(=O)N23)OCCO4)cc1Cl = label 0
12) COc1cc([C@@H]2c3cc4c(cc3C[C@H]3C(=O)N(C)C(=S)N23)OCCO4)cc(OC)c1OC = label 2
13) COc1cc([C@@H]2c3cc4c(cc3C[C@H]3C(=O)NC(=O)N23)OCCO4)cc(F)c1OC = label 1
14) COc1cc([C@@H]2c3cc4c(cc3C[C@H]3COC(=O)N32)OCCO4)cc(OC)c1Br = label 1
15) COc1cc([C@@H]2c3cc4c(cc3C[C@H]3COC(=O)N32)OCCO4)cc(F)c1OC = label 0
16) COc1cc([C@@H]2c3cc4c(cc3C[C@H]3C(=O)NCC(=O)N23)OCO4)cc(OC)c1OC = label 2
17) COc1cc([C@@H]2c3cc4c(cc3C[C@H]3C(=O)NC(=O)N23)OCO4)cc(OC)c1OC = label 2

* * *

Here, each record is paired with measured half-life at 1 µM data.
assay comment: Metabolic stability in human liver microsomes assessed as half life at 1 uM by LC/MS analysis
Format: ADME, Microsome
property: half-life at 1 µM (min)

1. COc1c(Cl)cc([C@@H]2c3cc4c(cc3C[C@H]3COC(=O)N32)OCCO4)cc1Cl = 2.95
2. O=C1NC(=O)N2[C@H](c3cc(Cl)c(F)c(Cl)c3)c3cc4c(cc3C[C@@H]12)OCCO4 = 14.4
3. COc1cc([C@@H]2c3cc4c(cc3C[C@H]3COC(=O)[C@@H]32)OCO4)cc(OC)c1OC [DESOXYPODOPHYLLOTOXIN] = 1.12

* * *

Listed here are compounds together with their documented pIC50.
Tested on: MCF7
assay comment: cells
condition details: Homo sapiens, MCF7, 72 h
pIC50: −log10 of the molar value.
property: pIC50

1. O=C1OC[C@@H]2Cc3cc4c(cc3[C@@H](c3ccncc3)N12)OCO4 = < 5.30
2. COc1cc2c(cc1OC)[C@@H](c1cc(OC)c(OC)c(OC)c1)N1C(=O)OC[C@@H]1C2 = < 5.30
3. CCN1C(=O)[C@@H]2Cc3cc4c(cc3[C@@H](c3cc(OC)c(OC)c(OC)c3)N2C1=O)OCO4 = < 5.30
